All values here come from patent US20240270821A1.

Reported cAMP Rel EC50 (1% HSA) is given for each of the following binders.
Target: human glucagon receptor (human) (UniProt P47871)
Sequence (P47871 26-477): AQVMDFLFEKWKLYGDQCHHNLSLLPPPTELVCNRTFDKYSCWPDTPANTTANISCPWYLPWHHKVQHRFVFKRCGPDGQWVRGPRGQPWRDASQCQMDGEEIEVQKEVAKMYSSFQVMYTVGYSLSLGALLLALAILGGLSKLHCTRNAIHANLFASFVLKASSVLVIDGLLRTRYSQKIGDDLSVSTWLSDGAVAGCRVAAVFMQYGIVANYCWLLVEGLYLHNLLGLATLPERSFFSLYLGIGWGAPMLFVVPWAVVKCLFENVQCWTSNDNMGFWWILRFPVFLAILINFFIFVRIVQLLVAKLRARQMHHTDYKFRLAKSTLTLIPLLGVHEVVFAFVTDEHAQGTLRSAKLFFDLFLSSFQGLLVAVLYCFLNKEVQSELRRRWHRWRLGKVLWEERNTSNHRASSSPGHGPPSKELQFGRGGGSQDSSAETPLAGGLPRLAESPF
Experiment: cell-based or functional assay

binder: YXQGTFTSDXSQXLDKKAQXAFIEYLIEXGPSSGAPPPSGSE (acylated lysine γGlu-C18 diacid; non-natural residues; C-terminal amide; synthetic construct; SITE 2: note = 2-Aminoisobutyric Acid; SITE 10: note = 3-(4-Pyridyl)-L-alanine; SITE 13: note = alpha-methyl-leucine; SITE 17: note = Lysine is chemically modified through conjugation of the epsilon-amino group of the Lysine side chain with (D-Glutamic acid)2-(gamma-Glu)-CO-(CH2)) [Example 925]
cAMP Rel EC50 (1% HSA): 2500 nM
//
binder: YXQGTXTSDXSILLDKKAQXAFIEXLEEGGPSSGAPPPSGTGE (synthetic construct; SITE 2: note = 2-Aminoisobutyric Acid; SITE 6: note = alpha-methyl-2-fluoro-L-phenylalanine; SITE 10: note = 3-(4-Pyridyl)-L-alanine; SITE 17: note = Lysine is chemically modified through conjugation of the epsilon-amino group of the Lysine side chain with (gamma-Glu)2-CO-(CH2)1) [Example 664]
cAMP Rel EC50 (1% HSA): 179 nM
//
binder: YXQGTFTSDXSXXLDKKAQXAFIEYLIAGGPSSGAPPPSGSEE (not fully specified; Aib, 4Pal, Orn, αMeL, Me4Pal; acylated Lys; C-terminal amide; synthetic construct; SITE 2: note = 2-Aminoisobutyric Acid; SITE 10: note = 3-(4-Pyridyl)-L-alanine; SITE 12: note = L-ornithine; SITE 13: note = alpha-methyl-leucine; SITE 17: note = Lysine is chemically modified through conjugation of the epsilon-amino group of the Lysine side chain with (Glu)-(ga)) [Example 1060]
cAMP Rel EC50 (1% HSA): 4900 nM
